system-under-test: wildtype feline IL-31 (Feline_IL31_wildtype) (feline)
Sequence (chain, as listed by the source limits assumed, form in doubt): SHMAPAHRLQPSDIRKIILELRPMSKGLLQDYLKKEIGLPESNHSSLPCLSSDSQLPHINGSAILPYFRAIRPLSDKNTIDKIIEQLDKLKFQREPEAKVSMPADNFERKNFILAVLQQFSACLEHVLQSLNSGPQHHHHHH
test-description: SPR (Biacore), immobilised IL-31, 1:1 fit
readout-type: Kd (nM)
The response must be a number in nM with no trailing unit.

Solved cases (5 shown):
binder	Kd / nM
Feline 15H05 2.2 (antibody, V domains shown) VH: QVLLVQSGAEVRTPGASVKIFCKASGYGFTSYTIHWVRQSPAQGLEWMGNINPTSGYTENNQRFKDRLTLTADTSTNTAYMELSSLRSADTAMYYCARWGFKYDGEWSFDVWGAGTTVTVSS VL: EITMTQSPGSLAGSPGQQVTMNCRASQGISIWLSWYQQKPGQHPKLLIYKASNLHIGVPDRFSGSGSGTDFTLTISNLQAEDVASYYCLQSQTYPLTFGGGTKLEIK	2.15
Feline 15H05 1.1 FW2 (antibody, V domains shown) VH: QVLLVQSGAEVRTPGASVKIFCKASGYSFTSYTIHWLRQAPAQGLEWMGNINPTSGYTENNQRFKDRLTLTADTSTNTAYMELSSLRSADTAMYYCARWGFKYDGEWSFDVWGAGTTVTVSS VL: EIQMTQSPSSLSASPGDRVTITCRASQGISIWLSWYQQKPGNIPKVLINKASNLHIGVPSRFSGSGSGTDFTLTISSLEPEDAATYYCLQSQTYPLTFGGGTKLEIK	0.065
Feline 15H05 1.1 K42N (antibody, V domains shown) VH: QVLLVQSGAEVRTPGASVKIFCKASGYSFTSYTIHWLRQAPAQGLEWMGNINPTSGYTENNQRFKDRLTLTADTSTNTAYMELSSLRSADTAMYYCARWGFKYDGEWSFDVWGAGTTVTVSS VL: EIQMTQSPSSLSASPGDRVTITCRASQGISIWLSWYQQKPGNVPKLLIYKASNLHIGVPSRFSGSGSGTDFTLTISSLEPEDAATYYCLQSQTYPLTFGGGTKLEIK	6770
Feline 15H05 1.1 FW1_3 (antibody, V domains shown) VH: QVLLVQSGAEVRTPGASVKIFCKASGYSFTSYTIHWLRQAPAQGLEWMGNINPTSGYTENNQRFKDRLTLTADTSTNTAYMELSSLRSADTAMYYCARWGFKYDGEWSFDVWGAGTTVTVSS VL: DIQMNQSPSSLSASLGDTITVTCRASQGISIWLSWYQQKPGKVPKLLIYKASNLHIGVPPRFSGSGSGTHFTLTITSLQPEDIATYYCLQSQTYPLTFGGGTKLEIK	0.0674
Feline 15H05 1.1 FW2_3 (antibody, V domains shown) VH: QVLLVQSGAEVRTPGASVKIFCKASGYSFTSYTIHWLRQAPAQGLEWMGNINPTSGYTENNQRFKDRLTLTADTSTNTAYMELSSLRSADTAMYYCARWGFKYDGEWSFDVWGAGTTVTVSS VL: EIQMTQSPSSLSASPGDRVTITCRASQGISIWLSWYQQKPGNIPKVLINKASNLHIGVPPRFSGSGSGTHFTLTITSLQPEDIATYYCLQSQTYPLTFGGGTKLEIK	123

Challenge: Which measured Kd value corresponds to Feline 15H05 3.1 (antibody, V domains shown) VH: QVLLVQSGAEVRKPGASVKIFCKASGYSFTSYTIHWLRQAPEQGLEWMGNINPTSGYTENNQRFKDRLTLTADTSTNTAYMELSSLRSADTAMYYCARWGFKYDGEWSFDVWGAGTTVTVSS VL: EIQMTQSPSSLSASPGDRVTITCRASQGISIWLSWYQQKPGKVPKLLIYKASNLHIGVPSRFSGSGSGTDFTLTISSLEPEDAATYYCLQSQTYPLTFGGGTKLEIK ?
Response given: 37.1

Challenge: Which measured Kd value corresponds to Feline 15H05 2.1 (antibody, V domains shown) VH: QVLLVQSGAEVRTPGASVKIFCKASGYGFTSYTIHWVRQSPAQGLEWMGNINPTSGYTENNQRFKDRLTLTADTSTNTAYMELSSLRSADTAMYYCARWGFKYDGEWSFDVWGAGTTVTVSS VL: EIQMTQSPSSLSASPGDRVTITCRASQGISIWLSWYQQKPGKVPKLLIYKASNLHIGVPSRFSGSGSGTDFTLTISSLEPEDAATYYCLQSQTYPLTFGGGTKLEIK ?
Response given: 22.3

Challenge: Which measured Kd value corresponds to Feline 15H05 2.3 (antibody, V domains shown) VH: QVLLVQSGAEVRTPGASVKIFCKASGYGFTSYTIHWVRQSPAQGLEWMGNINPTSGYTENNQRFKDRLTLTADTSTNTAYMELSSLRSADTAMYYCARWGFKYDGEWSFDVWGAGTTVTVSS VL: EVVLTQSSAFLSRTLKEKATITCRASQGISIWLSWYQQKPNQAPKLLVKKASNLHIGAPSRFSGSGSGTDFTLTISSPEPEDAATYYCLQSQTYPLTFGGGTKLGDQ ?
Response given: 1.57

Challenge: Which measured Kd value corresponds to Feline 11E12 1.1 K46Q (antibody, V domains shown) VH: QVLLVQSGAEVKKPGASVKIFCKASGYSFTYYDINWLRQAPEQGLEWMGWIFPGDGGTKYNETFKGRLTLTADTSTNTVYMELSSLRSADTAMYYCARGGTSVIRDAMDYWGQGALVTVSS VL: EIQMTQSPSSLSASPGDRVTITCRASESVDNYGISFMHWYQQKPGQVPKLLIYRASNLESGVPSRFSGSGSGTDFTLTISSLEPEDAATYYCQQSNKDPLTFGQGT ?
Response given: 12.6

Challenge: Which measured Kd value corresponds to Feline 15H05 1.1 K42N_V43I (antibody, V domains shown) VH: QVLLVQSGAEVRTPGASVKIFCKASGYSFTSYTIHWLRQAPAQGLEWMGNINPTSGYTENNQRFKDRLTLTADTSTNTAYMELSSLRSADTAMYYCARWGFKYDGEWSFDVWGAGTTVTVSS VL: EIQMTQSPSSLSASPGDRVTITCRASQGISIWLSWYQQKPGNIPKLLIYKASNLHIGVPSRFSGSGSGTDFTLTISSLEPEDAATYYCLQSQTYPLTFGGGTKLEIK ?
Response given: 9.42
